Data credit: patent US20250019387A1

pIC50 for assorted molecules
Molecular target: KRAS G12C and cRAF (Ras-binding domain) interaction (Homo sapiens (Human), UniProt P01116, C118S/C51S/C80L/G12C)
Sequence (P01116 other isoform, or with tags, fused parts or gaps G12C/C51S/C80L/C118S): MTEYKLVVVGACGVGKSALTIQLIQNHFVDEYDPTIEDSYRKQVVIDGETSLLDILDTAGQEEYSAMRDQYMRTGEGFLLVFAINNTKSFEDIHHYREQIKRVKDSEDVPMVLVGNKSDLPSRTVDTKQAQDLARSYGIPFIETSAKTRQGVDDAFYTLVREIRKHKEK
Assay: Inhibition of KRAS G12C and cRAF binding (AlphaScreen)
Details: GMPPNP-loaded KRAS G12C, 19-20 hours incubation with compound; read-out: IC50 (Inhibition of KRAS G12C and cRAF Binding)
pIC50: −log10 of the molar value.

Query block: Provide one value: measured pIC50 of C=CC(=O)N1CC[C@@H](N(C)c2nc(OCC34CCCN3CCC4)nc3c(F)c(-c4cccc5ccc(F)c(F)c45)ncc23)C1 [Example 265]
Result block: 7.00 to 8.00

Query block: Identify measured pIC50 associated with C=CS(=O)(=O)CCN(C)c1nc(OC[C@@H]2CCCN2C)nc2c1CCN(c1cccc3cccc(Cl)c13)C2 [Example 47]
Result block: 7.00 to 8.00

Query block: Entry Cc1coc(/C=C/C(=O)N2CC[C@@H](N(C)c3nc(OCC45CCCN4CCC5)nc4c(F)c(-c5cccc6cccc(Cl)c56)ncc34)C2)n1 [Example 143] needs its pIC50 filled in; supply it.
Result block: 6.30 to 7.00

Query block: Give pIC50 for C=CC(=O)N1CC[C@@H](N(C)c2nc(OC[C@@]34CCCN3C[C@H](F)C4)nc3c(F)c(-c4cccc5cc(Cl)cc(Cl)c45)ncc23)C1 [Example 263]
Result block: < 6.30

Query block: Report measured pIC50; entry is CN(CC1CCN(C#N)C1)c1nc(OC[C@@H]2CCCN2C)nc2c1CCN(c1cccc3cccc(Cl)c13)C2 (stereo partly drawn) [Example 31]
Result block: < 6.30

Query block: Note down pIC50 recorded for CC(C)c1noc(/C=C/C(=O)N2CC[C@@H](N(C)c3nc(OCC45CCCN4CCC5)nc4c(F)c(-c5cccc6ccc(F)c(Cl)c56)ncc34)C2)n1 [Example 85]
Result block: > 8.00

---

Overview of recorded pIC50 for various compounds
Target: KRAS G12C and cRAF (Ras-binding domain) interaction (Homo sapiens (Human), UniProt P01116, C118S/C51S/C80L/G12C)
Assay: Inhibition of KRAS G12C and cRAF binding (AlphaScreen)
Details: additional exemplary compounds; KRAS G12C and cRAF binding; read-out: RAF1 RBD IC50
pIC50: −log10 of the molar value.

Below, each entry is followed by its recorded pIC50 result.
C=CC(=O)N1CC[C@H](F)[C@@H](N(C)c2nc(OC[C@@]34CCCN3C[C@H](F)C4)nc3c(F)c(-c4cccc5cccc(Cl)c45)ncc23)C1 ... < 6.30
CN(CCS(=O)(=O)/C=C/CN1CCC(F)(F)C1)c1nc(OC[C@@H]2CCCN2C)nc2c(F)c(-c3cccc4cccc(Cl)c34)ncc12 ... < 6.30
C=CC(=O)N1CC(CN(C)c2nc(OC[C@@]34CCCN3C[C@H](F)C4)nc3c(F)c(-c4cccc5cccc(Cl)c45)ncc23)C1 ... 7.00 to 8.00

Then there is this compound:
Query block: Identify measured pIC50 associated with C=CS(=O)(=O)[C@H]1C[C@H](N(C)c2nc(OCC34CCCN3CCC4)nc3c2CCN(c2cccc4cccc(Cl)c24)C3)C1
Result block: 6.30 to 7.00

---

Biological target: KRAS G12C and cRAF (Ras-binding domain) interaction (Homo sapiens (Human), UniProt P01116, C118S/C51S/C80L/G12C)
Experiment: Inhibition of KRAS G12C and cRAF binding (AlphaScreen)
Details: GMPPNP-loaded KRAS G12C, 19-20 hours incubation with compound; read-out: IC50 (Inhibition of KRAS G12C and cRAF Binding)
endpointName: IC50

C=CC(=O)N1C[C@@H](F)[C@H](N(C)c2nc(OCC34CCCN3CCC4)nc3c(F)c(-c4cccc5ccc(F)c(Cl)c45)ncc23)C1 ... 10 to 100 nM
CN1CCC1C#CC(=O)N1CC[C@@H](N(C)c2nc(OC[C@@]34CCCN3C[C@H](F)C4)nc3c(F)c(-c4cccc5cccc(Cl)c45)ncc23)C1 (stereo partly drawn) ... < 10 nM

Query block: Annotate the molecule C=CC(=O)N1CC[C@@H](N(C)c2nc(OC[C@@]34CCCN3C[C@H](F)C4)nc3c(F)c(-c4cccc5cc(F)c(F)cc45)ncc23)C1 with its measured IC50.
Result block: 100 to 500 nM

Query block: Using the record for CN1CC(=CC(=O)N2CC[C@@H](N(C)c3nc(OC[C@@]45CCCN4C[C@H](F)C5)nc4c(F)c(-c5cccc6cccc(Cl)c56)ncc34)C2)C1 , state its measured IC50.
Result block: 10 to 100 nM

Query block: Could you please provide reported IC50 for C=CS(=O)(=O)[C@H]1C[C@H](N(C)c2nc(OC[C@@H]3CCCN3C)nc3c2CCN(c2cccc4cccc(Cl)c24)C3)C1 ? Thanks!
Result block: 100 to 500 nM

Query block: Input Cc1nccc(/C=C/C(=O)N2CC[C@@H](N(C)c3nc(OC[C@@]45CCCN4C[C@H](F)C5)nc4c(F)c(-c5cccc6ccc(F)c(F)c56)ncc34)C2)n1 , output reported IC50.
Result block: 10 to 100 nM

---

Biological target: KRAS G12C and cRAF (Ras-binding domain) interaction (Homo sapiens (Human), UniProt P01116, C118S/C51S/C80L/G12C)
Assay: Inhibition of KRAS G12C and cRAF binding (AlphaScreen)
Conditions: GMPPNP-loaded KRAS G12C, 19-20 hours incubation with compound; read-out: IC50 (Inhibition of KRAS G12C and cRAF Binding)
pIC50: −log10 of the molar value.
Overview of recorded pIC50 for various compounds

Recorded pIC50, per entry:
CN(c1nc(OC[C@@]23CCCN2C[C@H](F)C3)nc2c(F)c(-c3cccc4cccc(Cl)c34)ncc12)[C@@H]1CCN(C(=O)/C=C/c2nc(C3(C)COC3)no2)C1 [Example 95] ... > 8.00
C=CC(=O)N1C[C@@H](N(C)c2nc(OC[C@@]34CCCN3C[C@H](F)C4)nc3c(F)c(-c4cccc5cccc(Cl)c45)ncc23)C(F)(F)C1 [Example 285] ... < 6.30

Could you now consider this next compound?
Query block: Quickly give me recorded pIC50 for CN(c1nc(OC[C@@]23CCCN2C[C@H](F)C3)nc2c(F)c(-c3cccc4ccc(F)c(Cl)c34)ncc12)[C@@H]1CCN(C(=O)C#CCN2CC(F)(F)C2)C1 [Example 209]
Result block: 7.00 to 8.00

---

Biological target: KRAS G12C and cRAF (Ras-binding domain) interaction (Homo sapiens (Human), UniProt P01116, C118S/C51S/C80L/G12C)
Experiment: Inhibition of KRAS G12C and cRAF binding (AlphaScreen)
endpointName: IC50

Query block: Give a short answer stating reported IC50 for C=CC(=O)N1CC[C@@H](N(CC(F)F)c2nc(OC[C@@]34CCCN3C[C@H](F)C4)nc3c(F)c(-c4cccc5cccc(Cl)c45)ncc23)C1 .
Result block: 10 to 100 nM

---

Target: KRAS G12C and cRAF (Ras-binding domain) interaction (Homo sapiens (Human), UniProt P01116, C118S/C51S/C80L/G12C)
Experiment: Inhibition of KRAS G12C and cRAF binding (AlphaScreen)
Settings: GMPPNP-loaded KRAS G12C, 19-20 hours incubation with compound; read-out: IC50 (Inhibition of KRAS G12C and cRAF Binding)
pIC50: −log10 of the molar value.
# pIC50 annotations

CN(c1nc(OC[C@@]23CCCN2C[C@H](F)C3)nc2c(F)c(-c3cccc4cccc(Cl)c34)ncc12)[C@@H]1CCN(C(=O)/C=C/c2nc(C3COC3)no2)C1 ... > 8.00
CN(CC1CN(C(=O)/C=C/c2nc(C(C)(C)O)no2)C1)c1nc(OC[C@@]23CCCN2C[C@H](F)C3)nc2c(F)c(-c3cccc4ccc(F)c(Cl)c34)ncc12 ... > 8.00

Query block: Fill in pIC50 for record Cc1nccc(/C=C/C(=O)N2CCC[C@H](N(C)c3nc(OC[C@@]45CCCN4C[C@H](F)C5)nc4c(F)c(-c5cccc6cccc(Cl)c56)ncc34)C2)n1
Result block: 6.30 to 7.00

Query block: Give me measured pIC50, please, for this molecule: C#Cc1c(F)ccc2cccc(-c3ncc4c(N(C)[C@@H]5CCN(C(=O)/C=C/[C@H]6CCN6C)C5)nc(OC[C@@]56CCCN5C[C@H](F)C6)nc4c3F)c12
Result block: > 8.00

Query block: Using the record for COC(=O)/C=C/C(=O)N1CC[C@@H](N(C)c2nc(OC[C@@H]3CCCN3C)nc3c(F)c(-c4cccc5cccc(Cl)c45)ncc23)C1 , state its measured pIC50.
Result block: > 8.00

---

Target: KRAS G12C and cRAF (Ras-binding domain) interaction (Homo sapiens (Human), UniProt P01116, C118S/C51S/C80L/G12C)
Experiment: Inhibition of KRAS G12C and cRAF binding (AlphaScreen)
Conditions: GMPPNP-loaded KRAS G12C, 19-20 hours incubation with compound; read-out: IC50 (Inhibition of KRAS G12C and cRAF Binding)
pIC50: −log10 of the molar value.
Below, each entry is listed alongside its reported pIC50.

Cc1c(F)ccc2cccc(-c3ncc4c(N(C)[C@@H]5CCN(C(=O)/C=C/[C@H]6CCN6C)C5)nc(OC[C@@]56CCCN5C[C@H](F)C6)nc4c3F)c12 [Example 206] ... 7.00 to 8.00
CN(c1nc(OCC23CCCN2CCC3)nc2c(F)c(-c3cccc4cccc(Cl)c34)ncc12)[C@@H]1CCN(C(=O)/C=C/c2nc([C@H]3C[C@@H]3F)no2)C1 [Example 129] ... 7.00 to 8.00
CN(c1nc(OC[C@@]23CCCN2C[C@H](F)C3)nc2c1CCN(c1cccc3cccc(Cl)c13)C2)[C@@H]1CCN(C(=O)/C=C/c2nc(C3COC3)no2)C1 [Example 154] ... > 8.00
CC(C)N1CC[C@@H]1/C=C/C(=O)N1CC[C@@H](N(C)c2nc(OC[C@@]34CCCN3C[C@H](F)C4)nc3c(F)c(-c4cccc5cccc(Cl)c45)ncc23)C1 [Example 232] ... 7.00 to 8.00
COC(=O)/C=C/C(=O)N1CC[C@@H](N(C)c2nc(OC[C@@H]3CCCN3C)nc3c2CCN(c2cccc4cccc(Cl)c24)C3)C1 [Example 10] ... 7.00 to 8.00

Query block: Dear colleague, please send me the reported pIC50 for CN(CC1CN(C(=O)/C=C/c2nc(C3COC3)no2)C1)c1nc(OCC23CCCN2CCC3)nc2c(F)c(-c3cccc4cccc(Cl)c34)ncc12 [Example 153] when you can.
Result block: 7.00 to 8.00

Query block: Output measured pIC50 for this item: CN(CC1CN(C(=O)/C=C/c2nc(C(F)F)no2)C1)c1nc(OCC23CCCN2CCC3)nc2c1CCN(c1cccc3cccc(Cl)c13)C2 [Example 150]
Result block: > 8.00

Query block: Answer with reported pIC50 of C=CC(=O)N1CC[C@@H](N(C)c2nc(OC[C@@]34CCCN3C[C@H](F)C4)nc3c(F)c(-c4cccc5cccc(F)c45)ncc23)C1 [Example 258]
Result block: 7.00 to 8.00

Query block: Give pIC50 for CN(c1nc(OC[C@@]23CCCN2C[C@H](F)C3)nc2c(F)c(-c3cccc4cccc(Cl)c34)ncc12)[C@@H]1CCN(C(=O)/C=C/[C@H]2CCN2CC2COC2)C1 [Example 224]
Result block: 7.00 to 8.00

Query block: Determine its reported pIC50: C=CS(=O)(=O)CCCN(C)c1nc(OC[C@@H]2CCCN2C)nc2c1CCN(c1cccc3cccc(Cl)c13)C2 [Example 46]
Result block: < 6.30

Query block: Tell me its pIC50 given CN(c1nc(OCC23CCCN2CCC3)nc2c1CCN(c1cccc3cccc(Cl)c13)C2)[C@@H]1CCN(C(=O)/C=C/c2nc(C(C)(C)C)no2)C1 [Example 149] as the entry.
Result block: 7.00 to 8.00

Query block: Retrieve pIC50 measured for C#Cc1c(F)ccc2cccc(-c3ncc4c(N(C)[C@@H]5CCN(C(=O)/C=C/c6ccnc(C)n6)C5)nc(OC[C@@]56CCCN5C[C@H](F)C6)nc4c3F)c12 [Example 278] and print it.
Result block: 7.00 to 8.00

Query block: Specify pIC50 for CN1CCC[C@H]1COc1nc(N(C)[C@@H]2CCN(C#N)C2)c2cnc(-c3cccc4cccc(Cl)c34)c(F)c2n1 [Example 36] and stop.
Result block: 7.00 to 8.00

Query block: Return the recorded pIC50 value; entry: CN(c1nc(OCC23CCCN2CCC3)nc2c1CCN(c1cccc3cccc(Cl)c13)C2)[C@@H]1CCN(C(=O)/C=C/c2nc(C3COC3)no2)C1 [Example 156]
Result block: 7.00 to 8.00

Query block: Could you please provide reported pIC50 for CN1CCOCC1C#CC(=O)N1CC[C@@H](N(C)c2nc(OC[C@@]34CCCN3C[C@H](F)C4)nc3c(F)c(-c4cccc5cccc(Cl)c45)ncc23)C1 (some centres unmarked) [Example 188] ? Thanks!
Result block: 6.30 to 7.00

Query block: Give the measured pIC50 for CN(c1nc(OC[C@@]23CCCN2C[C@H](F)C3)nc2c(F)c(-c3cccc4cccc(Cl)c34)ncc12)[C@H]1CN(C(=O)/C=C/c2nc(C(C)(C)O)no2)C[C@@H]1F [Example 56]
Result block: 7.00 to 8.00

Query block: Return pIC50 (reported value) for this compound: C=CC(=O)N1C[C@H](N(C)c2nc(OCC34CCCN3CCC4)nc3c(F)c(-c4cccc5cccc(Cl)c45)ncc23)CC1C#N (some centres unmarked) [Example 118]
Result block: 7.00 to 8.00

Query block: Read off the recorded pIC50 for CCN(CC)C/C=C/S(=O)(=O)CCN(C)c1nc(OCC23CCCN2CCC3)nc2c1CCN(c1cccc3cccc(Cl)c13)C2 [Example 55]
Result block: > 8.00
